These measurements were taken from the RNAGym collection of RNA variant scans (doi:10.7554/elife.90254).

B1: LINE1-mini (parent)
chain: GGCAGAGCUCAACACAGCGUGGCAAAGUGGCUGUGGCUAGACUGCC

Variants of: B1
METHOD_SUMMARY: self-cleavage, relative activity (ratio to wild type); higher = more cleavage; in vitro, sequencing; the parent is a self-cleaving ribozyme
METRIC_NAME: self-cleavage

>>> df
    mutant_designation  value_measured
 0           A12G U43A            0.12
 1           C13A G44A            0.09
 2           A11U C18U            0.32
 3           A16U C37G            0.07
 4             A4U G5A             0.1
 5            G1A G29U             1.1
 6            U9C C18A            0.03
 7            U9G G19A            0.18
 8           U34C A39G            0.04
 9           U34A G44U            0.11
10            G5C G33U            0.06
11           U28C U43A            0.08
12            A6C U20C            0.33
13           A14G A24C            0.27
14            A6G A25U             0.1
15           G21A C45G            0.26
16           A16U G29C            0.53
17           G30A C46A            1.15
